Numbers sourced from patent US20240400708A1.

- measured_target: Feline FcRn complex (FcRn-alpha subunit and beta-microglobulin) (feline)
- run_description: SPR (Biacore), feline FcRn captured on SA chip, IgG flowed over, pH 6
For each of the binders below, state its pKd.
A value of pKd is the negative decimal logarithm of a concentration given in moles per litre.

Exercise: # query: pKd of entry feline IgG1a Fc mutant S428M, S434H (antibody, part only; not given: Variable domains, not shown: another chain or arm of the molecule; small tags and cut ends) constant: ASTTAPSVFPLAPSCGTTSGATVALACLVLGYFPEPVTVSWNSGALTSGVHTFPAVLQASGLYSLSSMVTVPSSRWLSDTFTCNVAHPPSNTKVDKTVRKTDHPPGPKPCDCPKCPPPEMLGGPSIFIFPPKPKDTLSISRTPEVTCLVVDLGPDDSDVQITWFVDNTQVYTAKTSPREEQFNSTYRVVSVLPILHQDWLKGKEFKCKVNSKSLPSPIERTISKAKGQPHEPQVYVLPPAQEELSRNKVSVTCLIKSFHPPDIAVEWEITGQPEPENNYRTTPPQLDSDGTYFVYSKLSVDRSHWQRGNTYTCSVMHEALHHHHTQKSLTQSPGK
Solution: 8.51

Exercise: # query: pKd of entry feline IgG1a Fc mutant S428Y, S434H (antibody, part only; not given: Variable domains, not shown: another chain or arm of the molecule; small tags and cut ends) constant: ASTTAPSVFPLAPSCGTTSGATVALACLVLGYFPEPVTVSWNSGALTSGVHTFPAVLQASGLYSLSSMVTVPSSRWLSDTFTCNVAHPPSNTKVDKTVRKTDHPPGPKPCDCPKCPPPEMLGGPSIFIFPPKPKDTLSISRTPEVTCLVVDLGPDDSDVQITWFVDNTQVYTAKTSPREEQFNSTYRVVSVLPILHQDWLKGKEFKCKVNSKSLPSPIERTISKAKGQPHEPQVYVLPPAQEELSRNKVSVTCLIKSFHPPDIAVEWEITGQPEPENNYRTTPPQLDSDGTYFVYSKLSVDRSHWQRGNTYTCSVYHEALHHHHTQKSLTQSPGK
Solution: 8.64

Exercise: # query: pKd of entry feline IgG1a Fc mutant S428Y, S434W (antibody, part only; not given: variable domains and light chain, not shown: another chain or arm of the molecule; small tags and cut ends) constant: ASTTAPSVFPLAPSCGTTSGATVALACLVLGYFPEPVTVSWNSGALTSGVHTFPAVLQASGLYSLSSMVTVPSSRWLSDTFTCNVAHPPSNTKVDKTVRKTDHPPGPKPCDCPKCPPPEMLGGPSIFIFPPKPKDTLSISRTPEVTCLVVDLGPDDSDVQITWFVDNTQVYTAKTSPREEQFNSTYRVVSVLPILHQDWLKGKEFKCKVNSKSLPSPIERTISKAKGQPHEPQVYVLPPAQEELSRNKVSVTCLIKSFHPPDIAVEWEITGQPEPENNYRTTPPQLDSDGTYFVYSKLSVDRSHWQRGNTYTCSVYHEALHWHHTQKSLTQSPGK
Solution: 8.86

Exercise: # query: pKd of entry feline IgG1a Fc mutant S428L, S434Y (antibody, part only; not given: Variable domains, not shown: another chain or arm of the molecule; small tags and cut ends) constant: ASTTAPSVFPLAPSCGTTSGATVALACLVLGYFPEPVTVSWNSGALTSGVHTFPAVLQASGLYSLSSMVTVPSSRWLSDTFTCNVAHPPSNTKVDKTVRKTDHPPGPKPCDCPKCPPPEMLGGPSIFIFPPKPKDTLSISRTPEVTCLVVDLGPDDSDVQITWFVDNTQVYTAKTSPREEQFNSTYRVVSVLPILHQDWLKGKEFKCKVNSKSLPSPIERTISKAKGQPHEPQVYVLPPAQEELSRNKVSVTCLIKSFHPPDIAVEWEITGQPEPENNYRTTPPQLDSDGTYFVYSKLSVDRSHWQRGNTYTCSVLHEALHYHHTQKSLTQSPGK
Solution: 9.03

Exercise: # query: pKd of entry feline IgG1a Fc mutant S428L, S252Y (antibody, part only; not given: Variable domains, not shown: another chain or arm of the molecule) constant: ASTTAPSVFPLAPSCGTTSGATVALACLVLGYFPEPVTVSWNSGALTSGVHTFPAVLQASGLYSLSSMVTVPSSRWLSDTFTCNVAHPPSNTKVDKTVRKTDHPPGPKPCDCPKCPPPEMLGGPSIFIFPPKPKDTLYISRTPEVTCLVVDLGPDDSDVQITWFVDNTQVYTAKTSPREEQFNSTYRVVSVLPILHQDWLKGKEFKCKVNSKSLPSPIERTISKAKGQPHEPQVYVLPPAQEELSRNKVSVTCLIKSFHPPDIAVEWEITGQPEPENNYRTTPPQLDSDGTYFVYSKLSVDRSHWQRGNTYTCSVLHEALHSHHTQKSLTQSPGK
Solution: 8.31

Exercise: # query: pKd of entry feline IgG1a Fc mutant Q311W, S428M (antibody, part only; not given: Variable domains, not shown: another chain or arm of the molecule; small tags and cut ends) constant: ASTTAPSVFPLAPSCGTTSGATVALACLVLGYFPEPVTVSWNSGALTSGVHTFPAVLQASGLYSLSSMVTVPSSRWLSDTFTCNVAHPPSNTKVDKTVRKTDHPPGPKPCDCPKCPPPEMLGGPSIFIFPPKPKDTLSISRTPEVTCLVVDLGPDDSDVQITWFVDNTQVYTAKTSPREEQFNSTYRVVSVLPILHWDWLKGKEFKCKVNSKSLPSPIERTISKAKGQPHEPQVYVLPPAQEELSRNKVSVTCLIKSFHPPDIAVEWEITGQPEPENNYRTTPPQLDSDGTYFVYSKLSVDRSHWQRGNTYTCSVMHEALHSHHTQKSLTQSPGK
Solution: 8.19

Exercise: # query: pKd of entry feline IgG1a Fc mutant S428M, S252F (antibody, part only; not given: Variable domains, not shown: another chain or arm of the molecule; small tags and cut ends) constant: ASTTAPSVFPLAPSCGTTSGATVALACLVLGYFPEPVTVSWNSGALTSGVHTFPAVLQASGLYSLSSMVTVPSSRWLSDTFTCNVAHPPSNTKVDKTVRKTDHPPGPKPCDCPKCPPPEMLGGPSIFIFPPKPKDTLFISRTPEVTCLVVDLGPDDSDVQITWFVDNTQVYTAKTSPREEQFNSTYRVVSVLPILHQDWLKGKEFKCKVNSKSLPSPIERTISKAKGQPHEPQVYVLPPAQEELSRNKVSVTCLIKSFHPPDIAVEWEITGQPEPENNYRTTPPQLDSDGTYFVYSKLSVDRSHWQRGNTYTCSVMHEALHSHHTQKSLTQSPGK
Solution: 8.23

Exercise: # query: pKd of entry feline IgG1a Fc mutant Q311M, S428Y (antibody, part only; not given: variable domains, not shown: another chain or arm of the molecule; small tags and cut ends) constant: ASTTAPSVFPLAPSCGTTSGATVALACLVLGYFPEPVTVSWNSGALTSGVHTFPAVLQASGLYSLSSMVTVPSSRWLSDTFTCNVAHPPSNTKVDKTVRKTDHPPGPKPCDCPKCPPPEMLGGPSIFIFPPKPKDTLSISRTPEVTCLVVDLGPDDSDVQITWFVDNTQVYTAKTSPREEQFNSTYRVVSVLPILHMDWLKGKEFKCKVNSKSLPSPIERTISKAKGQPHEPQVYVLPPAQEELSRNKVSVTCLIKSFHPPDIAVEWEITGQPEPENNYRTTPPQLDSDGTYFVYSKLSVDRSHWQRGNTYTCSVYHEALHSHHTQKSLTQSPGK
Solution: 8.24
